What GI50 was measured for each of the following?
System: SW-620
assay_remarks: NCI tumour cell line growth inhibition, 48 h
Active and inactive are the calls of the source. Rule as the data show it: active = GI50 up to about 1.1 µM and inactive = higher.

Look up and state reported GI50 for "COc1cc2c(cc1OC)-c1cc3ccccc3c(=O)n1CC2" 29.1 µM (inactive)

Look up and state reported GI50 for "Cc1ccc(S(=O)(=O)Oc2cc(S(=O)(=O)O)cc3cc(S(=O)(=O)O)cc(N)c23)cc1" > 100 µM (inactive)

Look up and state reported GI50 for CCC1(CN(C)C)CC/C(=C\c2ccc(OC)c(OC)c2)C1=O (stereo unspecified) > 100 µM (inactive)

Look up and state reported GI50 for COc1cccc2c1[C@H]1OC(=O)NC1CCCCC2 (stereo partly specified) > 100 µM (inactive)

Look up and state reported GI50 for Nc1nc(O)c2ncn(C3C=CC(CO)C3)c2n1 (stereo unspecified) > 100 µM (inactive)

Look up and state reported GI50 for "NS(=O)(=O)c1ccc(NNC(=O)c2cccc3c(=O)c4ccccc4[nH]c23)cc1" 72.6 µM (inactive)

Look up and state reported GI50 for "c1ccc(SCCc2ccncc2)cc1" > 100 µM (inactive)

Look up and state reported GI50 for "Fc1cc(-c2cc(-c3ccccc3)n[nH]2)c(Cl)cc1Cl" > 100 µM (inactive)

Look up and state reported GI50 for "CN[C@H](C)[C@@H](OC)c1ccccc1" > 100 µM (inactive)

Look up and state reported GI50 for "O=C(/C=C/c1cccc([N+](=O)[O-])c1)c1cccnc1" 19.4 µM (inactive)

Look up and state reported GI50 for COc1cc2c(cc1OCCCC(=O)Nc1cc(C(=O)Nc3cc(C(=O)NCCCN(C)C)n(C)n3)n(C)n1)N=CC1CCCN1C2=O (stereo unspecified) 15.2 µM (inactive)

---

What GI50 was measured for each of the following?
Tested on: HCT-15
API: value field is a number in µM; no unit string.

Look up and state reported GI50 for CC(=O)NCCC1CN(C(=O)/C=C\I)c2ccccc21 (centres undefined) 7.71

Look up and state reported GI50 for CC(=O)C1(O)CCC2(O)C3(O)CC=C4CC(O)CCC4(C)C3CC(OC(=O)c3ccc(O)cc3)C12C.COC1CC(OC2C(C)OC(OC3C(C)OC(OC4CCC5(C)C(=CCC6(O)C5CC(OC(=O)c5ccc(O)cc5)C5(C)C(O)(C(C)=O)CCC65O)C4)CC3OC)CC2OC)OC(C)C1O (centres undefined) 33.6

Look up and state reported GI50 for CC(N/N=C(\S)N1CCCC1)c1cccnn1 (centres undefined) 0.443

Look up and state reported GI50 for COc1cccc(C2c3cc4c(cc3OC(Nc3ccccc3)C2C)OCO4)c1OC (centres undefined) 4.37

Look up and state reported GI50 for "CC[C@](C)(O)C(=O)O[C@H]1C(=O)O[C@@H]2C[C@H]3C(C)=C[C@H](O)[C@@H](O)[C@]3(C)[C@H]3[C@@]4(O)OC[C@]32[C@@H]1[C@@H](C)[C@H]4O" 58.2

Look up and state reported GI50 for COc1cc(-c2coc3c(OC)c(OC4OC(CO)C(O)C(O)C4O)c(OC)cc3c2=O)cc(OC)c1C (centres undefined) 3.66

---

Test system: ACHN
assay_remarks: NCI tumour cell line growth inhibition, 48 h
Activity calls are given as the source filed them. No stated cut-off is given here; in the data, active = GI50 up to about 1.1 µM and inactive = higher.
observation_type: GI50

Look up and state reported GI50 for CCOC(=O)NC(Nc1ccc(F)cc1)(C(=O)OCC)C(F)(F)F (stereo not given) 2.62 µM (inactive)

Look up and state reported GI50 for CSc1ccc2c(cc1=O)C(NC(=O)c1ccc(OC(C)=O)cc1)CCc1cc(O)c(O)c(O)c1-2 (stereo not given) 66.8 µM (inactive)

Look up and state reported GI50 for "C=C(C)[C@@H]1CCC2=C[C@H](C/C(C)=C\C3=CC(C)=C(O3)[C@H]1O)OC2=O" 57.5 µM (inactive)

Look up and state reported GI50 for "CC(/C=N/N(C)C1=NCCCN1)=N/N(C)C1=NCCCN1" > 100 µM (inactive)

Look up and state reported GI50 for CCOC(=O)N1C(=O)C2C3C=CC(C2C1=O)C1C2C(=O)N(C(=O)OCC)C(=O)C2C31 (stereo not given) > 100 µM (inactive)

Look up and state reported GI50 for "Cc1cc(C)c2ccc(N3CCNCC3)nc2n1" > 100 µM (inactive)

Look up and state reported GI50 for "CSc1nc2[nH]c(=O)c(C)nc2c(=O)[nH]1" > 100 µM (inactive)

Look up and state reported GI50 for "N#Cc1nc(/C=C/c2ccccc2)oc1N" > 100 µM (inactive)

Look up and state reported GI50 for "CC(C)(C)C(=O)Nc1ccccc1Br" > 100 µM (inactive)

Look up and state reported GI50 for "CCOP(=O)(OCC)/C(C#N)=C/c1cnc(C)[nH]1" > 100 µM (inactive)

Look up and state reported GI50 for COC(=O)C1C(=O)O[C@@H](c2ccc(OC)cc2)C1C(=O)OC (stereo not given in full) > 100 µM (inactive)

Look up and state reported GI50 for "CN[C@H](C)[C@@H](OC)c1ccccc1" > 100 µM (inactive)

Look up and state reported GI50 for COc1cccc(C2c3cc4c(cc3OC(Nc3ccccc3)C2C)OCO4)c1OC (stereo not given) 3.94 µM (inactive)

Look up and state reported GI50 for "O=C1NCC2(CCN(Cc3ccccc3)CC2)N1" > 100 µM (inactive)

Look up and state reported GI50 for "O=[N+]([O-])C(=C/c1ccccc1)/C(=C\c1ccccc1)[N+](=O)[O-]" 16.9 µM (inactive)

Look up and state reported GI50 for "CSc1nc(=O)cnn1C" > 100 µM (inactive)

Look up and state reported GI50 for "N=C(N)NS(=O)(=O)c1ccc(NCc2c3ccccc3[n+]([O-])c3ccccc23)cc1" 17 µM (inactive)

Look up and state reported GI50 for COc1ccc(C2Oc3ccc(Cl)cc3C=C2[N+](=O)[O-])cc1 (stereo not given) > 100 µM (inactive)

Look up and state reported GI50 for "CC/C(Cl)=N\OC(=O)Nc1ccc(F)c([N+](=O)[O-])c1" 1.92 µM (inactive)

Look up and state reported GI50 for "CNn1c(-c2ccccc2)n[nH]c1=O" > 100 µM (inactive)

Look up and state reported GI50 for "CC(=O)NNc1nc(C)c(C(=O)/C=C/c2ccc(Cl)cc2)s1" > 100 µM (inactive)

Look up and state reported GI50 for CC[C@H]1CN(C)[C@H]2Cc3c([nH]c4ccccc34)C(=O)C[C@H]1C2C(=O)OC (stereo not given in full) > 100 µM (inactive)

Look up and state reported GI50 for "CCOC(=O)NC(=O)c1cn(CCCO)c(=O)[nH]c1=O" > 100 µM (inactive)

Look up and state reported GI50 for COc1ccc(-c2nc3ncccn3c2-c2ccc([S+](C)[O-])cc2)cc1 (stereo not given) > 100 µM (inactive)

Look up and state reported GI50 for Cc1cc(=O)[nH]c2cc(NC(=O)C(CCCNC(=N)N)NC(=O)OCc3ccccc3)ccc12 (stereo not given) > 100 µM (inactive)

Look up and state reported GI50 for "c1ccc(SCCc2ccncc2)cc1" > 100 µM (inactive)

Look up and state reported GI50 for "Cc1ccc(C)c(COCCOCn2ccc(N)nc2=O)c1" > 100 µM (inactive)

Look up and state reported GI50 for "Nc1nc2ccc(Sc3ccc4nc(N)[nH]c(=O)c4c3)cc2c(=O)[nH]1" > 100 µM (inactive)

Look up and state reported GI50 for CCC(c1ccc(OC)cc1)C1NC(=S)NC1=O (stereo not given) > 50 µM (inactive)

Look up and state reported GI50 for "COc1cc2c(cc1OC)-c1cc3ccccc3c(=O)n1CC2" 37.5 µM (inactive)

Look up and state reported GI50 for "O=C(c1ccc(-c2ccccc2)cc1)N(Cc1cccnc1)C(=S)N(Cc1cccnc1)C(=O)c1ccc(-c2ccccc2)cc1" > 100 µM (inactive)

Look up and state reported GI50 for "CCN(CC)CCNC(=O)c1ccccc1Nc1c(Cl)cccc1Cl" 17.5 µM (inactive)

Look up and state reported GI50 for "Cc1cc(N)c2cc(NC(=O)CCCCCCCCC(=O)Nc3ccc4nc(C)cc(N)c4c3)ccc2n1" 69.5 µM (inactive)

Look up and state reported GI50 for "O=C(O)CCCCn1cnc2c(S)ncnc21" > 100 µM (inactive)

Look up and state reported GI50 for "Cn1cnc([N+](=O)[O-])c1Sc1nc2cccnc2s1" 24.5 µM (inactive)

Look up and state reported GI50 for CC1=NN(c2ccccc2)C(=O)C1/N=N/c1ccc([As](=O)(O)O)c(O)c1 (stereo not given) > 100 µM (inactive)

Look up and state reported GI50 for Nc1nc(O)c2ncn(C3C=CC(CO)C3)c2n1 (stereo not given) > 100 µM (inactive)

Look up and state reported GI50 for "O=c1[nH]c2c(c3ccccc13)CCc1ccccc1-2" > 100 µM (inactive)

Look up and state reported GI50 for "O=C(Cc1ccc(OCc2cccc(Cl)c2)cc1)NO" 25.2 µM (inactive)

Look up and state reported GI50 for Cc1ccccc1N(CCC#N)C1=NN(C(=O)CC(=O)Nc2ccc(Cl)cc2)C(c2ccccc2)C1 (stereo not given) > 100 µM (inactive)

Look up and state reported GI50 for "Cc1nc(-c2cc3ccccc3oc2=O)cs1" 52.5 µM (inactive)

Look up and state reported GI50 for "O=c1oc2ccccc2n1P(=O)(n1c(=O)oc2ccccc21)n1c(=O)oc2ccccc21" > 100 µM (inactive)

Look up and state reported GI50 for "O=C1CCN2C(=O)CCN12" > 100 µM (inactive)

Look up and state reported GI50 for O=C1NC(=O)C2C1N(Cc1ccccc1)C(=O)N2Cc1ccccc1 (stereo not given) > 100 µM (inactive)

Look up and state reported GI50 for C=CC(c1ccccc1)[C@@]1(OC(C)=O)C(=O)C(=O)OC1C1COC(C)(C)O1 (stereo not given in full) 5.78 µM (inactive)
